- Experimental Protocol: in vivo
- Conditions: CD1, mouse, po, 100 mg/kg
Measured Attribute: Cmax (µM)

Here's what some known entries look like.
Compound Structure String	Cmax, µM
N#Cc1cc(F)c(C(=O)Nc2ccnc(NC(=O)[C@H]3C[C@H]3F)c2)c(Cl)c1	108
N#Cc1cc(Cl)c(C(=O)Nc2ccnc(NC(=O)C3CC3)c2)c(Cl)c1	119

1. N#Cc1cc(Cl)c(C(=O)Nc2ccnc(NC(=O)[C@H]3C[C@H]3F)c2)c(Cl)c1
2. O=C(Nc1ccnc(NC(=O)[C@H]2C[C@H]2F)c1)c1c(Cl)cccc1Cl
Please compare: 1 and 2 . Report which one has the smaller Cmax value. Refer to your chosen entry by its label in the reply.
2

All figures here come from ChEMBL document CHEMBL2385054.
